molecular target: λD-Acid:λD-Base association; assay: Titration of λD-Acid:λD-Base phage association by free competitors (loss of double resistant multilysogen formation); assay type: binding; conditions: free synthetic peptide competing with aptamer interaction; read-out: apparent KD (concentration of free peptide that results in an IC50)
I'd appreciate it if you could supply Kd values for the items below.
Give just the numeric value; nM need not be written.

The sequence listed as GRGRGRGR [Basic Aptamer, [Gly-Arg]4] shows Kd equal to 10

The sequence listed as GEGEGEGE [Acidic Aptamer, [Gly-Glu]4] shows Kd equal to 10
